Target: T1, biotinylated human B7-H7 protein (Acro Biosystems, B77-H82F5) (human, UniProt Q9UM44 23-344, biotinylated)
T1 construct: Bought soluble protein; also called biotin-B7H7 protein
T1 sequence (looked up): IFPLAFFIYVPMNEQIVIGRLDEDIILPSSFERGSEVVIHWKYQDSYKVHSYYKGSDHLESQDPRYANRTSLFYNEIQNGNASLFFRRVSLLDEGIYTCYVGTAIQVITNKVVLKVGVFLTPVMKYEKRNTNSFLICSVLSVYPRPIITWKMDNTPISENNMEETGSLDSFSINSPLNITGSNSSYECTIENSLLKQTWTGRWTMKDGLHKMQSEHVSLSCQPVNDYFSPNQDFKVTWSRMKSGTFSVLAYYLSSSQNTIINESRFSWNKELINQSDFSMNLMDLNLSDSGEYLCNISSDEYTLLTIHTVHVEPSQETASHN
Experiment: flow cytometry, blocking of biotinylated human B7-H7 binding to HEK-293/CD28H cells
Could you please report measured Maximum inhibition rate (%) for the items listed next?
Express your answer in %, writing the number without its unit.

[Q] For the binder shown here, PR003252 (antibody, human IgG1, kappa, V domains shown, Human IgG1; also called 53C12D4) VH: QVQLVESGGGVVQPGRSLRLSCAASGFTFSNYAMHWVRQVPGKGLEWVALIWYDGSEKYYADSVKGRFTISRDDSKNTLFLQMSSLRAEDTAVYSCVREYSSGWGYFDYWGQGTQVTVSS VL: DIQMTQSPSTLSASVGDRVTITCRASQSISSWLAWYQQKPGKAPKLLIYKASSLKSGVPSRFSGSGSGTEFTLTISSLQPDDFATYYCLQYNSYYTFGQGTKLEIKR , give the reported Maximum inhibition rate (%).
[A] 101

[Q] One more binder: PR003262 (antibody, human IgG1, kappa, V domains shown, Human IgG1; also called 77D5A4) VH: QVQLVESGGGVVQPGRSLRLSCAASGFTFSRYGIHWVRQAPGKGLEWVAVIWYNGRNKYYVDSVKGRFTISRDNSKNTLYLQMNSLRAEDTAVYYCARDGGYSYGPFDYWGQGTLVTVSS VL: EIVMTQSPATLSVSPGERATLSCRASQSFSNNLAWYQQKPGQAPRLLIYGASTRATGIPARFSGSGSGTEFTLTISSLQSEDFAVYYCHQYNIWPLTFGGGTKVEIKR
[A] 26.4

[Q] Moving on to PR003263 (antibody, human IgG1, kappa, V domains shown, Human IgG1; also called 77E6C4) VH: QVQLVESGGGVVQPGRSLRLSCAASGFTFSYYGLNWVRQAPGKGLEWVAVIWFDGTNKYYADSVKGRFTISRDDSKNTLYLQMNSLRAEDTAVYYCARGYGSGSYYNYVMDAWGQGASVTVSS VL: EIVMTQSPATLSVSPGERATLSCRASQSVSSNLAWYQQKPGQAPRLLIYGASTGATGIPARFSGSGSGTDFTLTISSLQSEDFAVYYCQQYYKWPLTFGGGTKVEIKR
[A] 59.3

[Q] // query: PR003265 (antibody, human IgG1, kappa, V domains shown, Human IgG1; also called 78G8B3) VH: QVQLVESGGGVVQPGRSLRLSCAASGFTFSTYGLHWVRQAPGKGLEWVAVIWYDESNEYYADSVKGRFTISRDNSKNTLYLQMNSLRAEDTALYYCARLAHDYGGTYFDYWGQGTLVTVSS VL: EIVMTQSPAILSVSPGERATLSCRASQSISYNLAWYQQKPGQAPRLLIYGASIRATGIPARFSGSGSGTDFTLTISSLQSEDFAVYYCQQYNNWPPWTFGQGTKVEIKR
[A] 102

These measurements were taken from patent US20250136696A1.
